Data origin, for the record: PubChem BioAssay (NCI)

Tested on: OVCAR-5 ovarian
Experimental Details: NCI tumour cell line growth inhibition, 48 h
TGI reference

>>> df
                                   molecule              tgt  test_value
0  COc1ccc(C2=CC(c3cc(OC)c(OC)c(OC)c3)n3ncnc3N2)cc1 (configuration not stated)  OVCAR-5 ovarian    > 100 µM
1  COC(=O)[C@H](Cc1ccccc1)NC(=O)c1csc([C@@H](C[C@H](C(C)C)N(C)C(=O)[C@@H](NC(=O)[C@H]2CCCCN2C)C2CC2)OC(C)=O)n1  OVCAR-5 ovarian     > 25 µM
2  O=C1OCC(C(=O)c2cccc(O)c2)C1=O (configuration not stated)  OVCAR-5 ovarian    > 100 µM
3  c1ccc2c(c1)nc(NCCN1CCNCC1)c1c3ccccc3[nH]c21  OVCAR-5 ovarian     3.15 µM
4  O=C1c2cc(Cl)ccc2-n2c(noc2=O)C2CSCN12 (configuration not stated)  OVCAR-5 ovarian    > 100 µM

For this molecule ( O=c1c(Cc2ccc(Cl)cc2)nnc2sc(-c3ccc([N+](=O)[O-])cc3)nn12 ), measured TGI is 88.1 µM

For this molecule ( O=C(Cc1nc2ccc(C(=O)c3ccccc3)cc2[nH]c1=O)C(=O)Nc1ccccc1[N+](=O)[O-] ), measured TGI is > 100 µM

====

Tested on: COLO 205 colon
Experimental Details: NCI tumour cell line growth inhibition, 48 h
Measured Attribute: TGI (µM)
Give just the number in µM; leave the unit off.

Compound	Test Value
CC1CN=C(c2cccc(OCc3ccc(COc4cccc(C5=NCC(C)N5)c4)cc3)c2)N1 (stereo not given)	39

For this compound ( CCCCCCCCCCCCOC1C(COCCN2CCCC2)OC2OC(C)(C)OC21 (stereo not given) ), measured TGI is 3.22

====

TGI reference
Test system: HT29 colon
Experimental Details: NCI tumour cell line growth inhibition, 48 h

For this compound ( COC(=O)[C@H](Cc1ccccc1)NC(=O)c1csc([C@@H](C[C@H](C(C)C)N(C)C(=O)[C@@H](NC(=O)[C@H]2CCCCN2C)C2CC2)OC(C)=O)n1 ), measured TGI is > 25 µM

For this compound ( Cn1c(N)c(/C=N/NC(=O)CC#N)c(=O)n(C)c1=O ), measured TGI is > 100 µM

For this compound ( CN(C)c1ccc(/C=C(\NC(=O)c2ccccc2)C(=O)Nc2ccccc2C(=O)NN2C(=O)CSC2c2ccc(N(C)C)cc2)cc1 (centres undefined) ), measured TGI is > 100 µM

For this compound ( CN(C)c1ccc(C(=NNC(=O)c2cc3ccccc3[nH]2)c2ccc(N(C)C)cc2)cc1 ), measured TGI is 9.93 µM

For this compound ( CC1=C(C#N)C(N)=C2C(C)=C(C#N)C(N)=C12 ), measured TGI is > 100 µM

For this compound ( CCOC(=O)C1C/C(C)=C(/C)SCCCS1 (centres undefined) ), measured TGI is > 100 µM

For this compound ( N#CC1c2ccccc2-c2ccccc2N1C(=O)c1ccccc1 (centres undefined) ), measured TGI is > 25.3 µM

For this compound ( CCOC(=O)C1C(c2cc(OC)c(O)c(OC)c2)c2cc3c(cc2OC1(C)O)OCO3 (centres undefined) ), measured TGI is > 100 µM

For this compound ( CC(C)(CN1CCCCC1)C(=O)CC(SCCS(=O)(=O)O)c1ccc(Br)cc1 (centres undefined) ), measured TGI is 3.72 µM

====

Test system: DU-145 prostate
Experimental Details: NCI tumour cell line growth inhibition, 48 h; in the data active = GI50 below about 0.43 µM; inactive = the rest
Assign a class; possible classes are active, inactive

                                   compound  category_label
0                Cc1ccc(NCSc2ccc(Cl)cc2)cc1        inactive
1  O=C1c2cccnc2C(=O)c2c1c(C(=O)OCCCN1CCOCC1)c1ccccn21          active
2             CCCC/C(=N\N=C(N)N)c1ccc(F)cc1        inactive
3  CC[C@@]1(OC(=O)CN)C(=O)OCc2c1cc1n(c2=O)Cc2cc3cc(N)ccc3nc2-1          active
4  COc1ccccc1C(=O)c1cnc(NC2CCN(S(C)(=O)=O)CC2)nc1N        inactive
5  CCN(CC)CCOc1ccc(/C=C2\C[C@H]3[C@@H]4CC=C5C[C@@H](OC(C)=O)CC[C@]5(C)[C@H]4CC[C@]3(C)[C@H]2OC(C)=O)cc1OC        inactive
6  O=C(/C=C/N1CCN(c2cccc(C(F)(F)F)c2)CC1)c1ccc(Cl)cc1Cl        inactive
7  c1ccc2c(c1)nc(NCCN1CCNCC1)c1c3ccccc3[nH]c21          active

# input Lab log entry: Cc1ccc([P+](Cc2ccc([N+](=O)[O-])cc2)(c2ccc(C)cc2)c2ccc(C)cc2)cc1 — outcome as called in the assay?
# output inactive

# input Lab log entry: Cc1nn(-c2ccccc2)c2c1C1C(=C(c3ccc(Cl)cc3)N2)C(=O)Nc2ccccc21 (stereo not given) — outcome as called in the assay?
# output inactive

====

TGI reference
Test system: M14 melanoma
Experimental Details: NCI tumour cell line growth inhibition, 48 h

                                   compound  test_value
0  Cc1[nH]c(=O)nc(N/N=C/c2ccc(Cl)c(Cl)c2)c1C(=O)Nc1ccc(Cl)c(Cl)c1     15.7 µM
1   Cc1cc(N(CCC#N)S(=O)(=O)c2ccccc2)ccc1C=O    > 100 µM
2               CN(C)CCCn1c2ccccc2c2cnccc21       33 µM

For this compound ( CC(=O)N(C(C)=O)n1c(Cc2ccc(Cl)cc2)nn(C(C)=O)c1=O ), measured TGI is > 100 µM

For this compound ( Cc1ccc(S(=O)(=O)C(C#N)c2nc3ccccc3nc2-n2cccn2)cc1 (stereo unspecified) ), measured TGI is > 100 µM

For this compound ( CC1OC(=O)N(CCCC=C2SCCCS2)C1=O (stereo unspecified) ), measured TGI is > 100 µM

====

log10 of TGI reference
Test system: NCI-H23 lung
Experimental Details: NCI tumour cell line growth inhibition, 48 h
Scale: log10; quantity: TGI; unit before log: µM

Below, each entry is followed by its recorded log10 of TGI result.
Compound	log10 of TGI
O=C(C[C@@H]1NCCC[C@H]1O)Cn1cnc2cc(Br)c(Cl)cc2c1=O	-0.96
Cc1ccc(-c2cc(-c3ccc(Cl)cc3)nc(/N=C3\C(=O)N(CN4CCCCC4)c4ccc(Cl)cc43)n2)cc1	1.71
Cc1nn(-c2ccccc2)c2c1C1C(=C(c3ccc(Cl)cc3)N2)C(=O)Nc2ccccc21 (stereo not given)	1.68
Cc1ccc2c(c1)c(=O)c1c(NCCN(C)C)ccc3nnn2c31	1.18
CCOC(=O)c1c2c(n(C)c1-c1ccccc1)C(=O)C(C)=CC2=O	1.47

For this compound ( C=C1C(=O)O[C@H]2C1[C@H](OC(=O)/C(C)=C\COC(C)=O)C[C@]1(CO1)[C@@H]1[C@H](O)[C@H]3O[C@@]3(C)[C@@H]12 (stereo not given in full) ), measured log10 of TGI is 1.47

For this compound ( CCN(CC)CCC(=O)Nc1ccc(Cn2nnc3c2C(=O)c2nnn(Cc4ccc(NC(=O)CCN(CC)CC)cc4)c2C3=O)cc1 ), measured log10 of TGI is 0.09

====

TGI reference
System: CCRF-CEM leukemia
Experimental Details: NCI tumour cell line growth inhibition, 48 h

Compound	Tgt	Test Value
COc1ccc(S(=O)(=O)N/N=C/C(=O)O)cc1	CCRF-CEM leukemia	712 µM
CC(C)(C)OC(=O)NC(Cc1ccccc1)C(=O)N[C@H]1c2ccsc2/C(=N/O)[C@H]1O (some centres undefined)	CCRF-CEM leukemia	> 100 µM
C=C1C(=O)O[C@H]2C1[C@H](OC(=O)/C(C)=C\COC(C)=O)C[C@]1(CO1)[C@@H]1[C@H](O)[C@H]3O[C@@]3(C)[C@@H]12 (some centres undefined)	CCRF-CEM leukemia	54.2 µM
O=C1CSC2(CC(/C=C/C=C/c3ccccc3)=NN2c2cccc(S(=O)(=O)O)c2)N1c1nc2ccccc2s1 (centres undefined)	CCRF-CEM leukemia	58.4 µM
O=C(C[C@@H]1NCCC[C@H]1O)Cn1cnc2cc(Br)c(Cl)cc2c1=O	CCRF-CEM leukemia	> 100 µM
O=C(Oc1c(I)ccccc1=O)c1ccc([N+](=O)[O-])cc1	CCRF-CEM leukemia	> 100 µM

For this compound ( COc1ccc2c(c1O)[C@@]13C=C(O)C(=O)C=C1[C@@H](C2)N(C)CC3 ), measured TGI is > 100 µM

For this compound ( Cc1[nH]c(=O)nc(N/N=C/c2ccc(Cl)c(Cl)c2)c1C(=O)Nc1ccc(Cl)c(Cl)c1 ), measured TGI is > 23 µM
